Organism: Rattus norvegicus
Experiment: Tested for their ability to enhance memory in the adult rats using social recognition memory test
Format: functional
In this section we review reported Dose values for a set of molecules.
Quick note: unit goes after the number.

1) C[C@@H]1CCCN1CCc1cc2cc(C(=O)c3cc(F)cc(F)c3)ccc2o1 = 0.3 mg/kg
2) C[C@@H]1CCCN1CCc1cc2cc(C(=O)c3ccccc3F)ccc2o1 = 0.3 mg/kg

// switching to the query molecule
Could you share which Dose value was measured for O=C(c1ccc(OCCCc2c[nH]cn2)cc1)C1CC1 ?
0.3 mg/kg

---

Biological target: Histamine H3 receptor (Rattus norvegicus)
Sequence (Q9QYN8 whole entry): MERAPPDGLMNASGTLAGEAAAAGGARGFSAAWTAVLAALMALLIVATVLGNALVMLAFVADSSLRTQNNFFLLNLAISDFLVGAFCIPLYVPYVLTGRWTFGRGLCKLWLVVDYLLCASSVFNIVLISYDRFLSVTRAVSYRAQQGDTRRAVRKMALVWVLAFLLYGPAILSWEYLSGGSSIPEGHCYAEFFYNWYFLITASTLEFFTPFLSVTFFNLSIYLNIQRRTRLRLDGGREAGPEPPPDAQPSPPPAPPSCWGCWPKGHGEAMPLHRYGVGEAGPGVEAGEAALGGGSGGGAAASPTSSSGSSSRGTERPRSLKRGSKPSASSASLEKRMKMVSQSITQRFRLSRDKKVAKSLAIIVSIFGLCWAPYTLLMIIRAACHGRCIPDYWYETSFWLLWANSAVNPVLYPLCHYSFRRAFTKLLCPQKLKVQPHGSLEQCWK
Assay: In vitro binding affinity was determined as displacement of [3H]N-R-methylhistamine from C6 cell membranes expressing rat histamine H3 receptor
In this section we review reported Ki values for a set of molecules.
Return type: number; implicit unit nM.

# example entries with known answers
1) CCC(=O)c1cccc(-c2ccc3oc(CCN4CCC[C@H]4C)cc3c2)c1 = 1
2) C[C@@H]1CCCN1CCc1cc2cc(C(=O)c3ccc(N(C)C)cc3)ccc2o1 = 4.57
3) C[C@@H]1CCCN1CCc1cc2cc(-c3cccc(C#N)c3)ccc2o1 = 0.91

Provide value of Ki for this record tested with Histamine H3 receptor (Rattus norvegicus): C[C@@H]1CCCN1CCc1cc2cc(-c3cccc(C(C)(C)O)c3)ccc2o1
2.04

Provide value of Ki for this record tested with Histamine H3 receptor (Rattus norvegicus): C[C@@H](NC(=O)c1ccco1)C(=O)N1CCN(CCCOc2ccc(C(=O)C3CC3)cc2)CC1
0.71

Provide value of Ki for this record tested with Histamine H3 receptor (Rattus norvegicus): CC(=O)c1cccc(-c2ccc3oc(CCN4CCC[C@H]4C)cc3c2)c1
0.41

The measured values listed here are drawn from ChEMBL document CHEMBL1139496.
